IC50 for assorted compounds
target: CETP (Homo sapiens, UniProt P11597); test: Assay of CETP inhibition in human plasma: transfer of [3H]CE from [3H]CE-HDL to VLDL and LDL; type: biochemical; set-up: Blood was obtained from healthy volunteers; from tissue; host or cells: pooled human EDTA plasma from healthy volunteers; settings: inhibition of transfer of [3H]CE from [3H]CE-HDL to VLDL and LDL
Sequence (P11597 18-493): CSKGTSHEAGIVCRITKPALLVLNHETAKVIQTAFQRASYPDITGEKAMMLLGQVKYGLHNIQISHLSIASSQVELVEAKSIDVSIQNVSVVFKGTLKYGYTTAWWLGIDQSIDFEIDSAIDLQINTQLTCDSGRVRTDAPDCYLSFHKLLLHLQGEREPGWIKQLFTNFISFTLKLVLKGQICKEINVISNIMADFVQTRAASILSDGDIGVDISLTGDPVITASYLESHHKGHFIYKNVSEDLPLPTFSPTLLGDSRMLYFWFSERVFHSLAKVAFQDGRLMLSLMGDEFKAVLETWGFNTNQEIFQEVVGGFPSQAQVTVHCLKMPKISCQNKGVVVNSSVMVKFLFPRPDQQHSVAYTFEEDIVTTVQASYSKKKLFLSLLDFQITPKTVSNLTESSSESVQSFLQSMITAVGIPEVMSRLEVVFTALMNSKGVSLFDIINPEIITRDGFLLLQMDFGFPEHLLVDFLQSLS
Give the number; µM is assumed, so skip it.

// worked examples, IC50 included
OC(CN(Cc1cccc(OC2CCCC2)c1)c1cccc(Oc2ccc(F)cc2)c1)C(F)(F)F (stereo not shown) [compound 653]: 38
OC(CN(Cc1cccc(OC(F)(F)F)c1)c1ccccc1)C(F)(F)F (stereo not shown) [compound 73]: 100
CC(C)Oc1cccc(CN(CC(O)C(F)(F)F)c2cccc(Oc3ccc(F)cc3)c2)c1 (stereo not shown) [compound 647]: 13
N#Cc1ccc(Oc2cccc(N(Cc3cccc(OC(F)(F)C(F)F)c3)CC(O)C(F)(F)F)c2)cc1 (stereo not shown) [compound 657]: 24

Problem: Quick one: IC50 of OC(CN(Cc1cccc(OC(F)(F)C(F)F)c1)c1cccc(Oc2ccc(F)c(F)c2)c1)C(F)(F)F (stereo not shown) [compound 638] ?
Result: 11

Problem: Quick one: IC50 of Cc1ccc(Oc2cccc(N(Cc3cccc(SC(F)(F)F)c3)CC(O)C(F)(F)F)c2)cc1 (stereo not shown) [compound 637] ?
Result: 8
